These data points were gathered from patent US7632829B2.

biological target: human chemokine receptor 2 isoform B (Homo sapiens); experiment: Calcium mobilization assay (FLIPR, CHOK1-CCR2B-A5 cells, 20 nM MCP-1); details: Ca mobilisation assay, CCR2, antagonist activity vs 20 nM MCP-1
Sequence (P41597 1-360 isoform P41597-2): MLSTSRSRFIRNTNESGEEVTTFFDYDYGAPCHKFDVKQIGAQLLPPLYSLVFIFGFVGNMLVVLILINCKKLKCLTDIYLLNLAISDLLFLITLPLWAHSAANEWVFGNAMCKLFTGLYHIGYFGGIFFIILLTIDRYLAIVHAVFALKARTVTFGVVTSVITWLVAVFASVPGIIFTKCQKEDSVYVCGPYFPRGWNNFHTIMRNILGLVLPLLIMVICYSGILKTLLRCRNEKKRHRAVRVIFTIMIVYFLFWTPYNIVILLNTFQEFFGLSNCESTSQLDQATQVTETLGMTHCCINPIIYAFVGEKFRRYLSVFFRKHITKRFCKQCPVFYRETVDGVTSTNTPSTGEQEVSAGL
# Lookup of reported log10 of IC50 keyed by entry
Recorded Metric: log10 of IC50 (log10 of the value in µM)

{"Molecule": "COCCN1CCN(CCCCN2CCN(C(=O)/C=C/c3ccc(F)c(Cl)c3)CCC2=O)CC1", "log10 of IC50": -0.14}
{"Molecule": "O=C(/C=C/c1cccc(Cl)c1)N1CCC(=O)N(CCN2CCC(c3ccccc3)CC2)CC1", "log10 of IC50": 0.17}
{"Molecule": "COC1CCC(CO)N(CCCCN2CCN(C(=O)/C=C/c3ccc(Cl)c(Cl)c3)CCC2=O)C1 (racemic)", "log10 of IC50": -0.50}
{"Molecule": "CC1(CO)CCN(CCCCN2CCN(C(=O)C=Cc3ccc(Cl)c(F)c3)CCC2=O)CC1O (centres unmarked) [Example 412]", "log10 of IC50": -0.47}
{"Molecule": "CN(CCN1CCN(C(=O)/C=C/c2ccc(Cl)c(Cl)c2)CCC1=O)C1CCCC1", "log10 of IC50": -0.28}
{"Molecule": "O=C(/C=C/c1ccc(Cl)c(Cl)c1)N1CCC(=O)N(CCCCCN2CCCCC2)CC1", "log10 of IC50": -0.50}
{"Molecule": "CC1C(O)CCCN1CCCCN1CCN(C(=O)C=Cc2ccc(F)c(Cl)c2)CCC1=O (centres unmarked)", "log10 of IC50": -0.42}
{"Molecule": "O=C(/C=C/c1ccc(Cl)c(Cl)c1)N1CCC(=O)N(CC(O)CN2CCC3(CC3)C(O)C2)CC1 (racemic)", "log10 of IC50": -1.80}
